Experiment: physchem
Type: physicochemical
Conditions: 25 °C, pH 7, aqueous buffer, thermodynamic from solid, Solubility class (Ph. Eur.)
observedProperty: solubility at 24 hr

[Q] Find the recorded solubility at 24 hr belonging to C=C(C)C1CCC(C)=C[C@H]1C1=C(O)C(=O)C(CCCCC)=C(NCc2ccccc2)C1=O (stereo partly shown) [VCE-004.8] and report it.
[A] < 0.1 mg/mL

* * *

Assay: physchem
Format: physicochemical
Settings: 25 °C, pH 1, simulated gastric fluid, thermodynamic from solid, Solubility class (Ph. Eur.)
observedProperty: solubility at 24 h

[Q] Field request: solubility at 24 h | item: C=C(C)C1CCC(C)=C[C@H]1C1=C(O)C(=O)C(CCCCC)=C(NCc2ccccc2)C1=O (stereo partly shown) [VCE-004.8]
[A] < 100 µg/mL

* * *

Assay: Log D determination (octanol / phosphate buffer pH 7.4)
Details: octanol / 0.1 M phosphate buffer pH 7.4, pH 7.4
observedProperty: logD
Please give the numeric answer without any surrounding text.

[Q] So what does the record say about logD for C=C(C)[C@@H]1CCC(C)=C[C@H]1c1c(O)cc(CCCCC)cc1O ?
[A] 5.44

* * *

Assay: in vitro
Format: in vitro ADME
Conditions: plasma
observedProperty: fraction unbound

[Q] I'd like to know its fraction unbound. The molecule in question is C=C(C)C1CCC(C)=C[C@H]1C1=C(O)C(=O)C(CCCCC)=C(NCc2ccccc2)C1=O (stereo partly shown)
[A] < 0.01

* * *

Assay: Solubility of VCE-004.8 and its phytosomes in buffer medium at various pH
Type: physicochemical
Settings: 37 °C, pH 1.2, simulated gastric fluid, thermodynamic from solid
observedProperty: solubility thermodynamic at 2 h (ng/mL)
Response body: numeric value in ng/mL, unit text excluded.

[Q] Reported solubility thermodynamic at 2 h, compound C=C(C)C1CCC(C)=C[C@H]1C1=C(O)C(=O)C(CCCCC)=C(NCc2ccccc2)C1=O (stereo partly shown) [VCE-004.8] : ____
[A] 5

* * *

Experiment: physchem
Type: physicochemical
Settings: 37 °C, oil or lipid, thermodynamic from solid, Solubility
observedProperty: solubility at 24 h
Mention the unit after the number when you answer.

[Q] solubility at 24 h for C=C(C)C1CCC(C)=C[C@H]1C1=C(O)C(=O)C(CCCCC)=C(NCc2ccccc2)C1=O (stereo partly shown) [VCE-004.8] ?
[A] 23.7 mg/mL

* * *

Assay: physchem
Assay type: physicochemical
Conditions: 25 °C, pH 9, aqueous buffer, thermodynamic from solid, Solubility
observedProperty: solubility at 24 hr

[Q] Endpoint output: solubility at 24 hr of C=C(C)C1CCC(C)=C[C@H]1C1=C(O)C(=O)C(CCCCC)=C(NCc2ccccc2)C1=O (stereo partly shown) . Value?
[A] < 8 µg/mL

* * *

Test: physchem
Assay type: physicochemical
Details: 25 °C, oil or lipid
observedProperty: solubility (mg/mL)
I only need the number, in mg/mL, no unit after it.

[Q] # solubility lookup, item C=C(C)C1CCC(C)=C[C@H]1C1=C(O)C(=O)C(CCCCC)=C(NCc2ccccc2)C1=O (stereo partly shown) [VCE-004.8]
[A] 17.7

* * *

Experiment: Solubility of VCE-004.8 and its phytosomes in buffer medium at various pH
Assay type: physicochemical
Conditions: 37 °C, pH 7.4, aqueous buffer, thermodynamic from solid
observedProperty: solubility thermodynamic at 2 h (ng/mL)
Use ng/mL as the unit, but write only the number.

[Q] Quick check: solubility thermodynamic at 2 h of C=C(C)C1CCC(C)=C[C@H]1C1=C(O)C(=O)C(CCCCC)=C(NCc2ccccc2)C1=O (stereo partly shown) ?
[A] 1

* * *

Assay: physchem
Format: physicochemical
Details: 25 °C, pH 1, simulated gastric fluid, thermodynamic from solid, Solubility
observedProperty: solubility at 24 h

[Q] Query: solubility at 24 h; subject: C=C(C)C1CCC(C)=C[C@H]1C1=C(O)C(=O)C(CCCCC)=C(NCc2ccccc2)C1=O (stereo partly shown) [VCE-004.8]
[A] < 8 µg/mL

* * *

Assay: physchem
Assay type: physicochemical
Conditions: 37 °C, oil or lipid
observedProperty: solubility
Answer as a quantity: numeral, then unit.

[Q] Query: solubility; subject: C=C(C)C1CCC(C)=C[C@H]1C1=C(O)C(=O)C(CCCCC)=C(NCc2ccccc2)C1=O (stereo partly shown)
[A] 34.5 mg/mL

* * *

Test: physchem
Format: physicochemical
Conditions: 25 °C, pH 7, aqueous buffer, thermodynamic from solid, Solubility
observedProperty: solubility at 24 hr

[Q] // query solubility at 24 hr value for entry C=C(C)C1CCC(C)=C[C@H]1C1=C(O)C(=O)C(CCCCC)=C(NCc2ccccc2)C1=O (stereo partly shown)
[A] < 8 µg/mL

* * *

Experiment: physchem
Conditions: pH 7.4
Method: Lipophilicity is a key determinant of the PK behavior of drugs. It can influence distribution into tissues, absorption and the binding characteristics of a drug, as well as being an important factor in determining the solubility of a compound. […] The solution was transferred to tubes, centrifuged and the supernatant is drawn off the top, leaving any solid compound in the bottom. […] For the quantitative analysis, the aqueous solutions were analyzed by LC MS/MS. […]
observedProperty: logD

[Q] Given the compound C=C(C)C1CCC(C)=C[C@H]1C1=C(O)C(=O)C(CCCCC)=C(NCc2ccccc2)C1=O (stereo partly shown) , what is its reported logD?
[A] > 5

* * *

Assay: physchem
Type: physicochemical
Settings: 25 °C, pH 5, aqueous buffer, thermodynamic from solid, Solubility class (Ph. Eur.)
observedProperty: solubility at 24 h

[Q] Need solubility at 24 h, item C=C(C)C1CCC(C)=C[C@H]1C1=C(O)C(=O)C(CCCCC)=C(NCc2ccccc2)C1=O (stereo partly shown) [VCE-004.8]
[A] < 0.1 mg/mL

* * *

Assay: Solubility of VCE-004.8 and its phytosomes in buffer medium at various pH
Assay type: physicochemical
Details: 37 °C, pH 6.8, aqueous buffer, thermodynamic from solid
Description: The solubility of Phytosome-VCE-004.8 was tested in buffer medium at various pH (1.2, 4, 5, 6, […] and 8.0). For each pH, independent supersaturated solutions of VCE-004.8 and its phytosomes were prepared. The suspensions w ere sonicated for 10 min and kept in a water bath at 37° C. for 2 hr. Then the final suspensions were filtered (with 0.45 PTFE disposable fitter) and the solutions were injected for HPLC analysis. […]
observedProperty: solubility thermodynamic at 2 h (ng/mL)
Reply numerically in ng/mL, unit not repeated.

[Q] Which solubility thermodynamic at 2 h value belongs to C=C(C)C1CCC(C)=C[C@H]1C1=C(O)C(=O)C(CCCCC)=C(NCc2ccccc2)C1=O (stereo partly shown) [VCE-004.8] ?
[A] 3

* * *

Experiment: physchem
Format: physicochemical
Settings: 25 °C, oil or lipid, thermodynamic from solid, Solubility class (Ph. Eur.)
observedProperty: solubility at 24 h

[Q] Can you share its solubility at 24 h? I mean this compound: C=C(C)C1CCC(C)=C[C@H]1C1=C(O)C(=O)C(CCCCC)=C(NCc2ccccc2)C1=O (stereo partly shown) [VCE-004.8]
[A] 33 to 100 mg/mL

* * *

Assay: physchem
Format: physicochemical
Conditions: 25 °C, pH 2, aqueous buffer, thermodynamic from solid, Solubility
observedProperty: solubility at 24 h

[Q] Need solubility at 24 h of C=C(C)C1CCC(C)=C[C@H]1C1=C(O)C(=O)C(CCCCC)=C(NCc2ccccc2)C1=O (stereo partly shown) [VCE-004.8] , thanks.
[A] < 8 µg/mL

* * *

Test: physchem
Format: physicochemical
Conditions: 25 °C, oil or lipid, thermodynamic from solid, Solubility
observedProperty: solubility at 24 h

[Q] Name the recorded solubility at 24 h for C=C(C)C1CCC(C)=C[C@H]1C1=C(O)C(=O)C(CCCCC)=C(NCc2ccccc2)C1=O (stereo partly shown) .
[A] 35.7 mg/mL

The measured values listed here are drawn from patent US20220184003A1.
